The measured values listed here are drawn from the supplement of paper PMC3545927.

Consider the following sequences; for each one, report its furin cleavage Z-score.
- assayed-system: furin, P09958;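 note: purified furin at 1:10 enzyme:substrate in 50 mM HEPES pH 7.5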
- Sequence (P09958 whole entry): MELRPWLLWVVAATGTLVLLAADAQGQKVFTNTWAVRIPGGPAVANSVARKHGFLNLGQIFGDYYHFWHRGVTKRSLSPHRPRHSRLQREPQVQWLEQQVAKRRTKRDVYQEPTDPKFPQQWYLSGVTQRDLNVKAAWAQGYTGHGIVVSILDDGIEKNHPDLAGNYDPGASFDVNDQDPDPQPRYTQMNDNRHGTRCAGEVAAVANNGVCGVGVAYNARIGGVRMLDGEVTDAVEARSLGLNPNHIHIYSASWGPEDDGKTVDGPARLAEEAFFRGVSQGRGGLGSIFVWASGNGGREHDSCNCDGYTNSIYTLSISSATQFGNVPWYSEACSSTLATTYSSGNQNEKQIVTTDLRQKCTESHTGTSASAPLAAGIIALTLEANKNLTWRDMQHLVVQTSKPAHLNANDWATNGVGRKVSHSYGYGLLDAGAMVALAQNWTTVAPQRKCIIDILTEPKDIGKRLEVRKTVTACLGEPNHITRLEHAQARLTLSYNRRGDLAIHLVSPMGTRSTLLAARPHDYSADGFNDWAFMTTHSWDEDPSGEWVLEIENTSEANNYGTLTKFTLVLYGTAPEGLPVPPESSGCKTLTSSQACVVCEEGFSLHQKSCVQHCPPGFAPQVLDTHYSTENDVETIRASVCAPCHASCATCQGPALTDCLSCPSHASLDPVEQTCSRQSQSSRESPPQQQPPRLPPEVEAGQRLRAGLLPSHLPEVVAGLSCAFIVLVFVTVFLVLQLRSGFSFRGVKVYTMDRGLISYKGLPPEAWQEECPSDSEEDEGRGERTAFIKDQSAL
- protocol-notes: furin cleavage Z-score vs untreated control; higher = more cleavage, active = 3.5 or more, inactive = 1 or less, 8 variable residues between constant flanks
- measurement-conditions: 15 min
Some of the results follow. The true hit rate is not given.
// no unit string in output, number only

Looking up CAVVCCSCSYAGNASASA [HC2060] , I see its furin cleavage Z-score listed as -2.14

Kindly note the recorded furin cleavage Z-score for CALSKRKKRKAGNASASA [FS-827] , which is 9.52

Form: sequence = CAYYHRHTRSAGNASASA [FS-577] ; furin cleavage Z-score = 0.71

Form: sequence = CAIPRRHTRSAGNASASA [FS-1015] ; furin cleavage Z-score = 4.88
